target-entity: human SSTR5 (Homo sapiens (Human), UniProt P35346)
Sequence (P35346 whole entry): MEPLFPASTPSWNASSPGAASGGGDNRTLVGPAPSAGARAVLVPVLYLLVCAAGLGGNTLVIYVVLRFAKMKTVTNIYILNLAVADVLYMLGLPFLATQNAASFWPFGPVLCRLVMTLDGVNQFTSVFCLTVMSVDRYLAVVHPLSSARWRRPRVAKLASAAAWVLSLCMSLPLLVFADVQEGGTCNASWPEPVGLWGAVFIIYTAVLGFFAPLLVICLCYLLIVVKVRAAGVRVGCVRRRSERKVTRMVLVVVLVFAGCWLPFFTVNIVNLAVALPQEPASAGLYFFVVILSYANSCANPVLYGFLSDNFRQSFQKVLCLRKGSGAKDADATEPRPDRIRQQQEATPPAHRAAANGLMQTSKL
protocol-details: Radioligand binding assay, CHO cell membranes expressing recombinant human SSTR5
readout: Ki

>>> df
                                   compound                             target_entity     result
0  Cc1nc(C(C)(C)NC(=O)[C@H]2[C@@H]3CNC[C@@H]32)c2ccccc2n1 [Example 138]  human SSTR5 (Homo sapiens (Human), UniProt P35346)  > 9.86 µM
1  Cc1cccc2c(C(C)(C)NC(=O)[C@H]3[C@@H]4CNC[C@@H]43)nn(C)c12 [Example 107]  human SSTR5 (Homo sapiens (Human), UniProt P35346)  > 9.85 µM
2  CC(C)(NC(=O)[C@H]1[C@@H]2CNC[C@@H]21)c1n[nH]c2ccccc12 [Example 94]  human SSTR5 (Homo sapiens (Human), UniProt P35346)  > 9.77 µM
3  Cc1cccc2c(C(C)(C)NC(=O)[C@H]3[C@@H]4CNC[C@@H]43)n[nH]c12 [Example 93]  human SSTR5 (Homo sapiens (Human), UniProt P35346)  > 9.77 µM
4  CC(C)(COc1cnccc1C(F)(F)F)NC(=O)[C@H]1[C@@H]2CNC[C@@H]21 [Example 63]  human SSTR5 (Homo sapiens (Human), UniProt P35346)  > 8.08 µM
5  Cc1cccnc1C(C)(C)NC(=O)[C@H]1[C@@H]2CNC[C@@H]21.Cl.Cl [Example 25]  human SSTR5 (Homo sapiens (Human), UniProt P35346)  > 9.86 µM
